FYI, the data here is from the supplement of paper PMC10567573.

B1: CPOX (parent)
chain: HAPTIHFNYRYFEVEEADGNKQWW

# Variants of: B1
# EXPERIMENT: protein stability index of a GFP-peptide fusion (GPS, HEK-293T) (PSI 1-6); higher = more stable;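 note: lentivirally expressed fusions sorted by FACS into six bins by GFP to DsRed ratio, PSI derived from sequencing read proportions per bin multiplied by bin number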
# EXPERIMENTAL_CONDITIONS: c terminus: a fixed tail appended
protein stability index by entry:
# print the numeric value only

Completed entries (count: 5):
{"columns": ["RESIDUE_CHANGE", "MEASUREMENT_NAME", "MEASURED"],
 "data": [
  ["T4C", "protein stability index", 2.01],
  ["V14W", "protein stability index", 2.35],
  ["G19C", "protein stability index", 1.97],
  ["E15V", "protein stability index", 1.79],
  ["W24H", "protein stability index", 3.03]
]}

Would you kindly share the measured protein stability index for Q22R ?
2.5

Would you kindly share the measured protein stability index for E13I ?
2.04

Would you kindly share the measured protein stability index for F12D ?
3.51

Would you kindly share the measured protein stability index for V14E ?
3.62
